# method.description: Pharmacokinetic (PK) experiment in rats by gavage
# Type: in vivo
# conditions: rat, plasma, po, male SD rats, 20 mg/kg
half-life less than 5 h is t; half-life greater than or equal to 5 h is f.

Would you please look over these solved cases?
>>> discrete_label("C=CC(=O)N1CCN(c2nc(=O)n(-c3c(C)ccnc3C(C)C)c3nc(-c4c(O)cccc4F)c(F)cc23)[C@@H](C)C1 (atropisomer, axis not shown) [AMG510, reference compound]")
"f"
>>> discrete_label("C=CC(=O)N1CCN(c2nc(=O)n(-c3c(C)ccnc3C(C)C)c3nc(-c4c(F)ccc5ccoc45)c(F)cc23)[C@@H](C)C1 (single isomer, unassigned)")
"t"

Take the compound C=CC(=O)N1CCN(c2nc(=O)n(-c3c(C(C)C)ccnc3C(C)C)c3nc(-c4c(F)ccc5ccoc45)c(Cl)cc23)[C@@H](C)C1 and say whether its half-life is less than 5 h.
t

Take the compound C=CC(=O)N1CCN(c2nc(=O)n(-c3c(C)ccnc3C(C)C)c3nc(-c4c(F)c(F)cc5ccoc45)c(Cl)cc23)[C@@H](C)C1 (single isomer, unassigned) [Compound 103-1] and say whether its half-life is less than 5 h.
f

Take the compound C=CC(=O)N1CCN(c2nc(=O)n(-c3c(C)ccnc3C(C)C)c3nc(-c4c(F)c(F)cc5ccoc45)c(F)cc23)[C@@H](C)C1 (single isomer, unassigned) and say whether its half-life is less than 5 h.
f

---

# target.entity: KRAS-G12C/SOS1 (Homo sapiens, UniProt P01116, G12C)
# Construct: purchased Cisbio #63ADK000CB16PEG
# Sequence (P01116 1-188 isoform P01116-2 G12C): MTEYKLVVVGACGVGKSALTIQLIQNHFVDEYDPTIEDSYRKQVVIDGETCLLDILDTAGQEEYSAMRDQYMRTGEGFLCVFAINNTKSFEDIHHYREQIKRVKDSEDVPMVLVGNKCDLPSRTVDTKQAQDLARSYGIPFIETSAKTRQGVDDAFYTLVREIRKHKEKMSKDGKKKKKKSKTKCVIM
# method.description: HTRF KRAS-G12C/SOS1 binding assay
# conditions: 2 hours room temperature
metric: IC50

>>> reported_measurement("C=CC(=O)N1CCN(c2nc(=O)n(-c3c(C)ccnc3C(C)C)c3nc(-c4c(F)ccc5ccoc45)c(F)cc23)[C@@H](C)C1 [Compound 70]")
"100 to 500 nM"
>>> reported_measurement("C=CC(=O)N1CCN(c2nc(=O)n(-c3c(C)ccnc3C(C)C)c3nc(-c4c(F)ccc5c4OCC5)c(F)cc23)[C@@H](C)C1")
"100 to 500 nM"
>>> reported_measurement("C=CC(=O)N1C[C@H](C)N(c2nc(=O)n(-c3c(C)ccnc3C(C)C)c3nc(-c4c(F)ccc5ccoc45)c(F)cc23)C[C@H]1C (single isomer, unassigned)")
"50 to 100 nM"

Using the record for C=CC(=O)N1CCN(c2nc(=O)n(-c3c(C)ccnc3C(C)C)c3nc(-c4c(F)ccc5ccoc45)c(Cl)cc23)[C@@H](C)C1 (single isomer, unassigned) [Compound 73-2] , state its measured IC50.
100 to 500 nM

Using the record for C=CC(=O)N1C[C@H](C)N(c2nc(=O)n(-c3c(C)ccnc3C(C)C)c3nc(-c4c(F)c(F)cc5ccoc45)c(Cl)cc23)C[C@H]1C (single isomer, unassigned) , state its measured IC50.
< 50 nM

Using the record for C=CC(=O)N1CCN(c2nc(=O)n(-c3c(C)ccnc3C(C)C)c3nc(-c4c(F)ccc5ccoc45)c(Cl)cc23)[C@@H](C)C1 (single isomer, unassigned) [Compound 73-1] , state its measured IC50.
< 50 nM

Using the record for C=CC(=O)N1C[C@H](C)N(c2nc(=O)n(-c3c(C)ccnc3C(C)C)c3nc(-c4c(F)c(F)cc5ccoc45)c(F)cc23)C[C@H]1C (single isomer, unassigned) , state its measured IC50.
100 to 500 nM

Using the record for C=CC(=O)N1CCN(c2nc(=O)n(-c3c(C)ccnc3C(C)C)c3nc(-c4c(F)ccc5ccoc45)c(F)cc23)[C@@H](C)C1 (single isomer, unassigned) [Compound 70-2] , state its measured IC50.
> 1000 nM
